target: ^3 H-Norepinephrine reuptake (Rattus norvegicus, UniProt Q63380); assay: Inhibition of Biogenic Amine Reuptake, ^3 H-Norepinephrine (WB)
Sequence (Q63380 1-617): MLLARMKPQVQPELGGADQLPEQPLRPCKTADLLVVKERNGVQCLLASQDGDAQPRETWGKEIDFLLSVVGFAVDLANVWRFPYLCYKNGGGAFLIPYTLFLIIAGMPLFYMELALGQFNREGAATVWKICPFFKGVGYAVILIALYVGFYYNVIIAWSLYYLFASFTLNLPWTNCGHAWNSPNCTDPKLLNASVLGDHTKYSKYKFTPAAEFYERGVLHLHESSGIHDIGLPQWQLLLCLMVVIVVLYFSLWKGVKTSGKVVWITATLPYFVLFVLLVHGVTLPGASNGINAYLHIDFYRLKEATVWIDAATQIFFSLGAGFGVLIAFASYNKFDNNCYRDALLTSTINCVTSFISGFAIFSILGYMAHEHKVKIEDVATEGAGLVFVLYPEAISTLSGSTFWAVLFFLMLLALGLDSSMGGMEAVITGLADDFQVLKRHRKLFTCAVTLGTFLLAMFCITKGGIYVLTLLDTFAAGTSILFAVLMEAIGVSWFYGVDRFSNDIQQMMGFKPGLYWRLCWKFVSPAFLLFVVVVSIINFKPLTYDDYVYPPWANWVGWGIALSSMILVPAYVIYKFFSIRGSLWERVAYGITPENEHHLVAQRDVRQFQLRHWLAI
Where a name gives a salt, the structure may show the parent alone.
reported.endpoint: IC50 (nM)
One number for each entry, in nM.

Challenge: Look up and report measured IC50 for this entry: CCCN(c1ccncc1)c1csc2ncccc12 [hydrochloride]
Response given: 710

* * *

molecular target: serotonin (5HT) uptake (Rattus norvegicus, UniProt P31652); construct: from tissue; host or cells: male Wistar rat whole brain minus cerebella, crude synaptosomes (S1); assay: ^3 H-Serotonin Uptake in Rat Whole Brain Synaptosomes; format: biochemical, rat (Wistar); details: […]
Sequence (P31652 whole entry): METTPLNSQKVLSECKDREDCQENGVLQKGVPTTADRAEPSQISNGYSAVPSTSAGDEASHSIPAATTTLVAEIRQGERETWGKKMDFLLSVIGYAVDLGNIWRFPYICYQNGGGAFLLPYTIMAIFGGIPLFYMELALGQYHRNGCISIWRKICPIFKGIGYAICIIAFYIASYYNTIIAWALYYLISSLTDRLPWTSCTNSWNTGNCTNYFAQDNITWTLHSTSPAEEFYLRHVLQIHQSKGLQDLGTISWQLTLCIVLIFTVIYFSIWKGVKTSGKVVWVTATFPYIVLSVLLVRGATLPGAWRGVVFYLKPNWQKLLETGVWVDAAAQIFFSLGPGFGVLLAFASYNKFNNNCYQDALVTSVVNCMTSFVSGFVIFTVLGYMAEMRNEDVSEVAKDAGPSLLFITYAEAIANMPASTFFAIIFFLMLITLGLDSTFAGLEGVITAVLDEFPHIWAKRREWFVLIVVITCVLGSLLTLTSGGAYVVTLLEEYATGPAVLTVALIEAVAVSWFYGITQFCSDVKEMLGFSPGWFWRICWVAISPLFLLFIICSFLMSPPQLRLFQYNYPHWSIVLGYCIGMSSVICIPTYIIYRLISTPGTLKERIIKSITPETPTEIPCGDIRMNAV
reported.endpoint: pIC50
Give bare numbers, as −log10 of the molar value.

Challenge: Indicate its recorded pIC50; the molecule in question is CCCN(c1ccncc1)c1csc2cnccc12
Response given: 6.27
